Test system: M. mycetomatis genome strain MM55
method.notes: CLSI M38-A2 based in vitro susceptibility screening (XTT or resazurin), growth at fixed concentration
Format: cell-based, Madurella mycetomatis
cond: Madurella mycetomatis, 25 uM, replicate A, MM55; read-out: Percentage survival at 25um, 25 um A

compound: CC[C@H](NC(=O)[C@H](C)NC)C(=O)N1C[C@@H](O)C[C@H]1Cc1c(-c2[nH]c3cc(F)ccc3c2C[C@@H]2C[C@H](O)CN2C(=O)[C@H](CC)NC(=O)[C@H](C)NC)[nH]c2cc(F)ccc12
activity at 25 µM / %: 88.1
--
compound: O=C(O)/C=C/C=C/c1cccc(Oc2cc(Cl)cc(Cl)c2)c1
activity at 25 µM / %: 58.7
--
compound: O=C(NO)C1(CS(=O)(=O)c2ccc(Oc3ccc(Cl)cc3)cc2)CCOCC1
activity at 25 µM / %: 85.7
--
compound: CC(C)(C)NC(=O)[C@@H]1CN(Cc2cnc3occc3c2)CCN1C[C@@H](O)C[C@@H](Cc1ccccc1)C(=O)N[C@H]1c2ccccc2C[C@H]1O
activity at 25 µM / %: 103
--
compound: O=C(O)C[C@H]1CC[C@H](c2ccc(-c3ccc(Nc4ccc(C(F)(F)F)nc4)cn3)cc2)CC1
activity at 25 µM / %: 72.4
--
compound: CC(N)C12CC3CC(CC(C3)C1)C2 (stereo not shown)
activity at 25 µM / %: 78.5
--
compound: CC1(C)CC(NC(=O)C(=O)Nc2ccc(Cl)cc2)CC(C)(C)N1
activity at 25 µM / %: 75.9
--
compound: CN(C(=O)C1(c2ccc(Cl)cc2)CCC1)c1ccccc1
activity at 25 µM / %: 61.1
--
compound: N[C@H](CCC(=O)N[C@@H](Cc1c[nH]c2ccccc12)C(=O)O)C(=O)O
activity at 25 µM / %: 91.2
--
compound: O=C(O)CSc1cc(NS(=O)(=O)c2cccc3cccnc23)c2ccccc2c1O
activity at 25 µM / %: 90.9
--
compound: O=C(O)c1cc(-c2ccc(Br)cc2)nc2ccc(Cl)cc12
activity at 25 µM / %: 82.6
--
compound: O=C(Nc1ccc(N2CCN(C(=O)c3ccccc3)CC2)cc1)c1ccc2c(c1)OCO2
activity at 25 µM / %: 103
--
compound: NC(=O)C(c1ccccc1)(c1ccccc1)[C@H]1CCCN(CCc2ccc3c(c2)CCO3)C1
activity at 25 µM / %: 130
--
compound: O=C(NCc1ccc(F)cc1)c1c(O)c2ncccc2[nH]c1=O
activity at 25 µM / %: 97.7
--
compound: c1cnc(NCc2ccc(CNc3ncccn3)cc2)nc1
activity at 25 µM / %: 53.2
--
compound: FC(F)(F)c1cc(C(F)(F)F)c2ccc3nc(-c4nnco4)cn3c2n1
activity at 25 µM / %: 100
